Tested on: Bovine viral diarrhea (BVD) virus
Test: Anti-BVDV CPE inhibition assay in MDBK cells
Conditions: Bovine viral diarrhea virus isolates and strains, MDBK, in Bos taurus, 96 h
Kindly supply the reported EC50 values for the records listed here.
Answers are plain numbers, in nM.

Give EC50 for all molecules that follow.
1. OCCOc1ccc(F)c(-c2nc3ccn(Cc4cc(-c5cc(F)ccc5F)no4)cc-3n2)c1
2. COc1ncccc1-c1cc2cn(Cc3nc4cc(C)ccc4o3)ccc-2n1
3. Fc1ccccc1-c1nc2ccn(Cc3nc4ccc(Cl)cc4s3)cc-2n1

460
16
78

Give EC50 for all molecules that follow.
1. Cc1ccc2nc(Cn3ccc4nc(-c5ccccc5F)nc-4c3)oc2c1
2. N#Cc1ccc(-c2nc3ccn(Cc4cc(-c5cc(F)ccc5F)no4)cc-3n2)cc1

377
81

Give EC50 for all molecules that follow.
1. Cc1c(-c2nc3ccn(Cc4nc5ccccc5s4)cc-3n2)cnn1C
2. COc1ncccc1-c1cc2ccn(Cc3nc4cc(C)ccc4o3)cc-2n1
3. Cc1ccc2oc(Cn3ccc4nc(-c5ccccc5CO)cc-4c3)nc2c1
4. Cc1ccc2nc(Cn3ccc4nc(-c5ccccc5CO)nc-4c3)sc2c1
5. Cc1ccc2sc(Cn3ccc4nc(-c5cn(C)nc5C)nc-4c3)nc2c1
6. COc1ccccc1-c1nc2ccn(Cc3nc4ccc(C)cc4s3)cc-2n1
7. Fc1ccccc1-c1cc2cn(Cn3nnc4ccccc43)ccc-2n1
8. Cc1ccc2nc(Cn3ccc4cc(-c5ccccc5F)nc-4c3)sc2c1

[78, 7, 311, 297, 300, 2, 12, 8]

Give EC50 for all molecules that follow.
1. Cc1ccc2nc(Cn3ccc4nc(-c5ccccc5F)nc-4c3)[nH]c2c1
2. Cc1ccc2nc(Cn3ccc4nc(-c5cc(OCCO)ccc5F)cc-4c3)sc2c1

[403, 37]
